test system: HL-60(TB) leukemia; assay: NCI-60 one-dose screen, 48 h; settings: 10 µM unless noted
The panel holds about 83,000 compounds, 20% with a hit somewhere; the sample as a whole holds those more often. Calls of active or inactive are those of the source. Rule for the calls: active = growth percent below 10; inactive = the rest.
Classes used: active, inactive

[
  {
    "compound": "C=C1C(=O)O[C@H]2[C@H]1CC/C(COC(=O)NCc1c[nH]c3ccc(F)cc13)=C\\CC[C@@]1(C)O[C@@H]21",
    "discrete label": "active"
  },
  {
    "compound": "CC1Cc2c(ncn3c(-c4ccc(F)cc4)nnc23)N(C)c2ccccc21 (centres undefined)",
    "discrete label": "inactive"
  },
  {
    "compound": "C=C(C)CCCC(C)CC#N (centres undefined)",
    "discrete label": "inactive"
  },
  {
    "compound": "COC(=O)c1nc(-c2ccccc2)oc1S(=O)(=O)n1nc(-c2ccccc2)cc1N",
    "discrete label": "inactive"
  },
  {
    "compound": "COc1ccc(-c2cc(-c3nnc(SC/C(=N\\O)c4ccccc4)n3-c3ccccc3)c3ccccc3n2)cc1",
    "discrete label": "inactive"
  },
  {
    "compound": "O=C1CCCC=CC[C@H]2C=C(Cl)C(=O)C2=CC[C@H](CCCCC(F)(F)F)OC(=O)CCCC=CC[C@H]2C=C(Cl)C(=O)C2=CC[C@H](CCCCC(F)(F)F)OC(=O)CCCC=CC[C@H]2C=C(Cl)C(=O)C2=CC[C@H](CCCCC(F)(F)F)O1",
    "discrete label": "inactive"
  },
  {
    "compound": "O=C1C=CC(=O)N1CCCCCCCCCCN1C(=O)C=CC1=O",
    "discrete label": "inactive"
  },
  {
    "compound": "Cn1c(COC(=O)NCCc2ccccn2)nc2c(N3CCOCC3)nc(Cl)nc21",
    "discrete label": "active"
  },
  {
    "compound": "O=C1CCn2c1c(O)c1ccccc1c2=O",
    "discrete label": "inactive"
  }
]

###

test system: T-47D breast; test: NCI-60 one-dose screen, 48 h; details: 10 µM unless noted
The panel holds about 83,000 compounds, 20% with a hit somewhere; the sample as a whole holds those more often. The source made the active and inactive calls. Rule for the calls: active = growth percent below 10; inactive = the rest.
Labels: YES for active, NO for inactive

[
  {
    "compound": "CCOC(=O)c1cnc(SCc2ccc(Cl)c(Cl)c2)nc1N1CC1",
    "target of assay": "T-47D breast",
    "discrete label": "NO"
  },
  {
    "compound": "COc1ccc(C(=O)c2ccc([As]=O)cc2)cc1 (centres undefined)",
    "target of assay": "T-47D breast",
    "discrete label": "YES"
  },
  {
    "compound": "CC(=O)C1C(=O)N(C)C(=O)N(C)C1=O",
    "target of assay": "T-47D breast",
    "discrete label": "NO"
  },
  {
    "compound": "C[C@]12CCC(=O)CC1CC[C@@H]1C2CC[C@@]2(C)C1CC[C@@H]2OC(=O)CC[Se][Se]CCC(=O)O[C@H]1CCC2[C@@H]3CCC4CC(=O)CC[C@]4(C)C3CC[C@@]21C (some centres undefined)",
    "target of assay": "T-47D breast",
    "discrete label": "NO"
  },
  {
    "compound": "COC1=CC(=O)OC(CCc2ccc3c(c2)OCO3)C1 (centres undefined)",
    "target of assay": "T-47D breast",
    "discrete label": "NO"
  },
  {
    "compound": "CCOc1ccc(C(O)CN(C)Cc2ccccc2)cc1Cl (centres undefined)",
    "target of assay": "T-47D breast",
    "discrete label": "NO"
  },
  {
    "compound": "COc1ccccc1N1CCN(CCc2c[nH]c3cc4c(cc23)OCO4)CC1",
    "target of assay": "T-47D breast",
    "discrete label": "NO"
  },
  {
    "compound": "COc1ccc(C(c2ccc(OC)cc2)C(Cl)(Cl)Cl)cc1",
    "target of assay": "T-47D breast",
    "discrete label": "NO"
  },
  {
    "compound": "CCC[CH2][Sn]([CH2]CCC)([CH2]CCC)[O]C(=O)c1ccc(Cl)cc1Cl",
    "target of assay": "T-47D breast",
    "discrete label": "YES"
  },
  {
    "compound": "CC(=O)N1N=C(c2ccccc2)CC1c1sc(N(CCCl)CCCl)nc1Cl (centres undefined)",
    "target of assay": "T-47D breast",
    "discrete label": "NO"
  },
  {
    "compound": "O=[N+]([O-])c1ccc(F)c([N+](=O)[O-])c1F",
    "target of assay": "T-47D breast",
    "discrete label": "NO"
  },
  {
    "compound": "COc1ccc(OC)c(/C=C(/C)[N+](=O)[O-])c1",
    "target of assay": "T-47D breast",
    "discrete label": "NO"
  },
  {
    "compound": "ClCCN(CCCl)c1ccc(/C=C\\c2ccnc3ccccc23)cc1",
    "target of assay": "T-47D breast",
    "discrete label": "NO"
  },
  {
    "compound": "O=C1NC(=O)C(CN2C(=O)C3(c4ccccc42)[C@H](Cl)C(=O)N3c2ccccc2)C(=O)N1 (some centres undefined)",
    "target of assay": "T-47D breast",
    "discrete label": "NO"
  },
  {
    "compound": "O=C(c1cccs1)C1NO[N+]([O-])=C1c1cccs1 (centres undefined)",
    "target of assay": "T-47D breast",
    "discrete label": "NO"
  },
  {
    "compound": "COc1c(O)c2c3c(c1OC)-c1ccccc1CC3N(C)CC2 (centres undefined)",
    "target of assay": "T-47D breast",
    "discrete label": "NO"
  },
  {
    "compound": "CCN(CC)c1ccc(C=C2C(=O)NC(=S)NC2=O)cc1",
    "target of assay": "T-47D breast",
    "discrete label": "NO"
  },
  {
    "compound": "Cc1cc([N+](=O)[O-])c(Cl)cc1NS(=O)(=O)c1ccccc1",
    "target of assay": "T-47D breast",
    "discrete label": "NO"
  },
  {
    "compound": "Nc1ccc(N)c2c1Oc1ccccc1O2",
    "target of assay": "T-47D breast",
    "discrete label": "NO"
  },
  {
    "compound": "N#Cc1ncc(/N=C/c2ccc(N(CCCl)CCCl)cc2)s1",
    "target of assay": "T-47D breast",
    "discrete label": "NO"
  },
  {
    "compound": "CCOC(=O)C1(c2ccccc2)CCN(CC(=O)c2ccc(NC(C)=O)cc2)CC1",
    "target of assay": "T-47D breast",
    "discrete label": "NO"
  },
  {
    "compound": "CCCCNCCc1ccccn1",
    "target of assay": "T-47D breast",
    "discrete label": "NO"
  },
  {
    "compound": "COc1cc2c(cc1OC)CN(C)C(C)C2 (centres undefined)",
    "target of assay": "T-47D breast",
    "discrete label": "NO"
  },
  {
    "compound": "CCOCC1(CCc2ccccc2)C(=O)NC(=S)NC1=O",
    "target of assay": "T-47D breast",
    "discrete label": "NO"
  },
  {
    "compound": "CC(N)Cc1ccc(O)cc1 (centres undefined)",
    "target of assay": "T-47D breast",
    "discrete label": "NO"
  },
  {
    "compound": "O=C(CF)N(O)c1ccc(/C=C/c2ccccc2)cc1",
    "target of assay": "T-47D breast",
    "discrete label": "NO"
  },
  {
    "compound": "CCOC(=O)Nc1cc(Cl)c([N+](=O)[O-])c(NC(=O)OCC)n1",
    "target of assay": "T-47D breast",
    "discrete label": "NO"
  },
  {
    "compound": "CC1CC=CCC12C(=O)NC(=S)NC2=O (centres undefined)",
    "target of assay": "T-47D breast",
    "discrete label": "NO"
  },
  {
    "compound": "O=C(Nc1ccc(S(=O)(=O)F)cc1)Oc1ccccc1",
    "target of assay": "T-47D breast",
    "discrete label": "NO"
  },
  {
    "compound": "CC[C@H](C)[C@H](NC(=O)Nc1ccccc1)C(=O)N(C)[C@H](C[C@@H](OC(C)=O)c1nc(C(=O)N[C@@H](Cc2ccccc2)C[C@H](C)C(=O)OC)cs1)C(C)C",
    "target of assay": "T-47D breast",
    "discrete label": "NO"
  },
  {
    "compound": "CC(CC(C#N)(c1ccccc1)c1ccccc1)N1CCOCC1 (centres undefined)",
    "target of assay": "T-47D breast",
    "discrete label": "NO"
  },
  {
    "compound": "O=C1NC(=O)C(=Cc2cn(Cc3ccccc3)c3ccccc23)C(=O)N1",
    "target of assay": "T-47D breast",
    "discrete label": "NO"
  },
  {
    "compound": "CN(C)P1(N(C)C)=NP(N(C)C)(N(C)C)=NP(N(C)C)(N(C)C)=N1",
    "target of assay": "T-47D breast",
    "discrete label": "NO"
  },
  {
    "compound": "CC1(C)N=C(N)N=C(N)N1c1ccc(OCCCCNC(=O)c2ccc(S(=O)(=O)F)cc2)c(Cl)c1",
    "target of assay": "T-47D breast",
    "discrete label": "NO"
  },
  {
    "compound": "COc1cc(/C=C\\c2cc(OC)c(OC)c(OC)c2)cc(N/C=C\\C(=O)c2ccc(OC(F)(F)F)cc2)c1OC",
    "target of assay": "T-47D breast",
    "discrete label": "NO"
  },
  {
    "compound": "C[CH2][Pb]([CH2]C)([CH2]C)[O]C(=O)COc1ccccc1",
    "target of assay": "T-47D breast",
    "discrete label": "NO"
  },
  {
    "compound": "O=C(NCCNC(=O)c1ccc([As](O)O)cc1)c1ccc([As](O)O)cc1",
    "target of assay": "T-47D breast",
    "discrete label": "NO"
  },
  {
    "compound": "O=[N+]([O-])c1cc([N+](=O)[O-])c(Cl)c(Cl)c1Cl",
    "target of assay": "T-47D breast",
    "discrete label": "YES"
  },
  {
    "compound": "Cc1cc(C)nc(C)c1.[Cl][Hg][Cl]",
    "target of assay": "T-47D breast",
    "discrete label": "NO"
  },
  {
    "compound": "O=C1NC2(CCNCC2)Nc2ccccc21",
    "target of assay": "T-47D breast",
    "discrete label": "NO"
  },
  {
    "compound": "NC(=O)C(Cl)Cl",
    "target of assay": "T-47D breast",
    "discrete label": "NO"
  },
  {
    "compound": "C[C@]12CC[C@H]3[C@@H](C[C@@H]4N=C(c5ccc(O)cc5)S[C@@]45C[C@H](O)CC[C@]35C)[C@@H]1CC[C@@H]2O",
    "target of assay": "T-47D breast",
    "discrete label": "NO"
  },
  {
    "compound": "NS(=O)(=O)c1nc[nH]c1[N+](=O)[O-]",
    "target of assay": "T-47D breast",
    "discrete label": "NO"
  },
  {
    "compound": "Cc1cc(N(CCCl)CCCl)ccc1C=Nc1ccc2ccccc2c1",
    "target of assay": "T-47D breast",
    "discrete label": "YES"
  }
]

All figures here come from PubChem BioAssay (NCI).
